Method description: NCI Yeast Anticancer Drug Screen. Data for the rad50 strain (AID 155);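 also: 0% = growth of vehicle-only cultures of the same strain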
Experimental conditions: S. cerevisiae rad50 strain growth inhibition; at 11.0 µM
Compounds without any hit were thinned out: in the full panel of roughly 79,000, 15% have a hit. Calls of active or inactive are those of the source. Rule as the data show it: active = growth inhibition above about 70%; inactive = the rest.
Classes used: active, inactive

>>> qualitative_label("O=[N+]([O-])[O][Sn]([O][Sn]([O][N+](=O)[O-])([c]1ccccc1)[c]1ccccc1)([c]1ccccc1)[c]1ccccc1")
"inactive"
>>> qualitative_label("OC1(C#CI)CCCCC1")
"active"
>>> qualitative_label("COc1ccc2nc3cccc([N+](=O)[O-])c3c(NCCNCCO)c2c1")
"active"

* * *

Method description: NCI Yeast Anticancer Drug Screen. Data for the rad50 strain (AID 155);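 also: 0% = growth of vehicle-only cultures of the same strain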
Experimental conditions: S. cerevisiae rad50 strain growth inhibition; at 50.0 µM
This is part of a sample that, as a whole, favours compounds with a hit. Of some 79,000 tested, about 15% had one in any assay. Calls of active or inactive are those of the source. Rule as the data show it: active = growth inhibition above about 70%; inactive = the rest.
Classes used: active, inactive

>>> qualitative_label("COC(=N)c1ccc(O)c(C)c1")
"inactive"
>>> qualitative_label("COC(=O)/C(C#N)=C\\NC(=S)C(N)=S")
"active"
>>> qualitative_label("CCCCCCCN(CCCCCCC)CC(=O)c1ccc2cc(Cl)c3ccccc3c2c1")
"active"
>>> qualitative_label("CC(C)OC(=O)NNc1cc(Cl)ccc1Cl")
"inactive"
>>> qualitative_label("O=S(=O)(c1cccc(C(F)(F)F)c1)N1c2ccccc2-n2cccc2C1c1cccnc1 (stereo not drawn)")
"active"
>>> qualitative_label("CCCCCCNCCCNc1c2cc(OC)ccc2nc2cccc([N+](=O)[O-])c12")
"active"
>>> qualitative_label("O=C(Cc1ccccc1)NNc1nc(NNC(=O)c2ccncc2)nc(Nc2ccc(Cl)cc2)n1")
"inactive"
>>> qualitative_label("COc1cc([C@@H]2c3cc4c(cc3[C@@H](NC(=O)NO)[C@H]3COC(=O)[C@H]23)OCO4)cc(OC)c1O")
"active"
>>> qualitative_label("NC(=S)N1N=C2c3ccccc3CC[C@H]2[C@@H]1c1ccc(Cl)cc1")
"active"
>>> qualitative_label("CC(C)(CN1CCCCC1)C(=O)/C=C/c1c(Cl)cccc1Cl")
"active"
>>> qualitative_label("COc1ccc2nc3cccc([N+](=O)[O-])c3c(NCCCCCC(=O)O)c2c1")
"active"
>>> qualitative_label("NC(CS)C(=O)NCCNc1ccc(NCCNC(=O)C(N)CS)c2c1C(=O)c1c(O)ccc(O)c1C2=O (stereo not drawn)")
"active"
>>> qualitative_label("Cc1ccccc1NC(=O)c1c(C)oc2c1C(=O)c1ccccc1C2=O")
"active"

* * *

Method description: NCI Yeast Anticancer Drug Screen. Data for the bub3 strain (AID 167)
Experimental conditions: S. cerevisiae bub3 mutant strain, at 100.0 µM
The panel holds about 79,000 compounds, 15% with a hit somewhere; the sample as a whole holds those more often. The source made the active and inactive calls. Cut-off read from the data, not from the text of the source: active = growth inhibition above about 70%; inactive = the rest.
Classes used: t (active), f (inactive)

>>> qualitative_label("CCCCCCCCCCCCCCCCCCNc1nc(=O)n(C2CC(OP(=O)(O)OCC3OC(n4cc(F)c(=O)[nH]c4=O)CC3O)C(CO)O2)cc1F (centres undefined)")
"f"
>>> qualitative_label("O=C1C(=C2CCCC2)CCC1CN1CCCCC1 (centres undefined)")
"t"
>>> qualitative_label("O=C1C=C(Br)C(=O)c2ccccc21")
"t"
>>> qualitative_label("O=C1C(/C=C/c2ccc(Cl)cc2)=NNC2N1N=C1NC(=O)C3(NN12)c1ccccc1-c1ccccc13 (centres undefined)")
"f"
>>> qualitative_label("Fc1ccc(Nc2ccc3ccccc3c2)cc1")
"t"
>>> qualitative_label("NC(=O)NC1C(c2ccccc2)=C1c1ccccc1")
"f"
>>> qualitative_label("C/C(=N/NC(=S)Nc1ccccc1C)c1ccccn1")
"f"
>>> qualitative_label("CC1(C)C(O)OC(O)C1(C)C (centres undefined)")
"f"
>>> qualitative_label("Cc1cc(O)c(C(C)C)cc1SC#N")
"t"

* * *

growth inhibition listing for selected compounds.
Method description: NCI Yeast Anticancer Drug Screen. Data for the CLN2oe strain (AID 163);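 also: 0% = growth of vehicle-only control cultures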
Experimental conditions: S. cerevisiae CLN2oe strain, at 1.2 µM, stronger effect = higher value
This is part of a sample that, as a whole, favours compounds with a hit. Of some 79,000 tested, about 15% had one in any assay.
Recorded endpoint: growth inhibition (%)

>>> recorded_measurement("CCC(/C=C/c1ccccc1)=N\\Nc1ccc(Cl)cc1")
-1
>>> recorded_measurement("CCCCCCCCCCCCCCCCCCNC(=S)/N=C/c1c(O)c2ccccc2[nH]c1=O")
-4
>>> recorded_measurement("COC(=O)C(=O)c1c(-c2ccc(Cl)c(Cl)c2)[nH]c2[nH]n(-c3ccccc3)c(=O)c2c1=O")
-6
>>> recorded_measurement("OC(Cc1cccc2ccccc12)CN1CCC(c2ccccc2)CC1 (stereo not drawn)")
63
>>> recorded_measurement("COc1ccc2nc3cccc([N+](=O)[O-])c3c(NCCNCCN(C)C)c2c1")
-1
>>> recorded_measurement("COc1cc([N+](=O)[O-])c2ncccc2c1Br")
-11
>>> recorded_measurement("S=C1C(=Nc2ccccc2)N(c2ccccc2)/C(=N\\c2ccccn2)N1c1ccccc1")
-8
>>> recorded_measurement("CC/C(=C(\\c1ccccc1)c1ccc(OCC[N+](C)(C)C)cc1)c1ccccc1")
-7
>>> recorded_measurement("CN1C(=O)C(CC(=O)O)NC1=S (stereo not drawn)")
-3
>>> recorded_measurement("CC(C)NCCCNc1c2ccccc2nc2cccc([N+](=O)[O-])c12")
35
>>> recorded_measurement("CC1=CC(=O)C=CC1=Nc1cc(Cl)c(O)c(Cl)c1")
-2
>>> recorded_measurement("CN(C)CCNC(=Cc1ccc2ccccc2[n+]1C)NCCN(C)C")
-3
>>> recorded_measurement("CCN(CC)CCC(=O)Nc1ccc2sc3ccccc3c(=O)c2n1")
0

* * *

Method description: NCI Yeast Anticancer Drug Screen. Data for the bub3 strain (AID 167)
Experimental conditions: S. cerevisiae bub3 mutant strain, at 11.0 µM, stronger effect = higher value
Compounds without any hit were thinned out: in the full panel of roughly 79,000, 15% have a hit.
Recorded endpoint: growth inhibition (%)

>>> recorded_measurement("CC(=O)NC(c1nc2cc(C)c(C)cc2[nH]1)c1nc2cc(C)c(C)cc2[nH]1")
22
>>> recorded_measurement("O=S1(=O)CCC2=CC(C(F)(F)F)=CC(C(F)(F)F)=CN21")
78
>>> recorded_measurement("O=C1/C(=C/c2ccc(Cl)c(Cl)c2)CNC/C1=C\\c1ccc(Cl)c(Cl)c1")
13
>>> recorded_measurement("O=C1CSC(c2ccccc2)N1c1ccc(-c2ccc(-n3c(-c4ccccc4)nc4ccccc4c3=O)cc2)cc1 (stereo not given)")
12
>>> recorded_measurement("CC1=NN(C(=O)c2ccccc2O)C(=O)/C1=C/c1ccco1")
91

* * *

growth inhibition listing for selected compounds.
Method description: NCI Yeast Anticancer Drug Screen. Data for the bub3 strain (AID 167)
Experimental conditions: S. cerevisiae bub3 mutant strain, at 11.0 µM, stronger effect = higher value
This is part of a sample that, as a whole, favours compounds with a hit. Of some 79,000 tested, about 15% had one in any assay.
Recorded endpoint: growth inhibition (%)

>>> recorded_measurement("O=C(Oc1ccc([N+](=O)[O-])cc1)c1ccc([N+](=O)[O-])cc1")
4
>>> recorded_measurement("O=[N+]([O-])c1cccc2nc3ccccc3c(NCCCN3CCCCC3)c12")
90
>>> recorded_measurement("Cc1ccc([N+](=O)[O-])c2c(NCCC[N+](C)(C)[O-])c3ccccc3nc12")
-20
>>> recorded_measurement("COC(=O)C(=O)c1c(-c2ccc(Cl)c(Cl)c2)[nH]c2[nH]n(-c3ccccc3)c(=O)c2c1=O")
51
>>> recorded_measurement("N#[N+]c1c([O-])c2ccccc2c2ccccc12")
24
>>> recorded_measurement("CCCCCCCCCCCCCCCCCCNc1nc(=O)n(C2CC(OP(=O)(O)OCC3OC(n4cc(F)c(=O)[nH]c4=O)CC3O)C(CO)O2)cc1F (stereo not drawn)")
-27
>>> recorded_measurement("CC(C)(CN1CCCCC1)C(=O)CC(SCCS(=O)(=O)O)c1ccccc1 (stereo not drawn)")
-1
>>> recorded_measurement("Nc1cccc(-c2cc[cH-]c2)c1.[Fe+2].c1cc[cH-]c1")
7

* * *

growth inhibition listing for selected compounds.
Method description: NCI Yeast Anticancer Drug Screen. Data for the wt2 strain (AID 169);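 also: 0% = growth of vehicle-treated yeast cultures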
Experimental conditions: S. cerevisiae wt2 strain growth inhibition; at 100.0 µM; stronger effect = higher value
This is part of a sample that, as a whole, favours compounds with a hit. Of some 79,000 tested, about 15% had one in any assay.
Recorded endpoint: growth inhibition (%)

>>> recorded_measurement("O=C1c2ccccc2-c2cc3ccccc3c(=O)n21")
73
>>> recorded_measurement("COc1cccc(C(NC2=NCCC=N2)c2cc3c(cc2O)OCO3)c1O (stereo not drawn)")
25
>>> recorded_measurement("CC(C(=O)N1C(=O)N(C(=O)C(C)C(O)c2ccccc2)C2CCCCC21)C(O)c1ccccc1 (stereo not drawn)")
29
>>> recorded_measurement("Cc1ccc(S(=O)(=O)NC(=O)C2C(=O)CC3(CCCCC3)CC2=O)cc1")
83
>>> recorded_measurement("CCCCCc1c(CCCC)c(=O)[nH]c2cc(CNCC(OC)OC)ccc12")
94
>>> recorded_measurement("O=C(O)c1ccccc1C(=O)OC1CCc2ccccc2C1 (stereo not drawn)")
25
>>> recorded_measurement("Nc1cccc(-c2cc[cH-]c2)c1.[Fe+2].c1cc[cH-]c1")
95
>>> recorded_measurement("CC1CCC(C2=CSC3CCCCC3N2)CC1 (stereo not drawn)")
74
>>> recorded_measurement("CN(C)CC1=Nc2cccc3cccc(c23)N1")
64
>>> recorded_measurement("NC(N)=NS(=O)(=O)c1ccc(Nc2c3ccccc3nc3c(C(=O)NC(CO)(CO)CO)cccc23)cc1")
4
>>> recorded_measurement("CCOP(=O)(OCC)/C(C#N)=C/c1ccc(-c2ccc(F)cc2F)o1")
1
>>> recorded_measurement("CC1=CN2C(c3ccccc3)=NON(c3ccc(C)cn3)C2C=C1 (stereo not drawn)")
-7
>>> recorded_measurement("O=C(c1cc(=O)c2ccc(O)cc2o1)c1ccc(Cl)cc1Cl")
88
>>> recorded_measurement("N#Cc1nc(Nc2ccc(Cl)cc2)sc1N")
84
>>> recorded_measurement("CCOC(=O)/C(=C/c1cccc(Cl)c1)N(CC)CC")
97
>>> recorded_measurement("O=C(Nn1c(-c2ccccc2)nc2ccccc2c1=O)c1ccc(CS)cc1")
98
>>> recorded_measurement("CCOC(=S)SSSC(=S)OCC")
99
>>> recorded_measurement("C1=CCN([B-](c2ccccc2)[C+]2CCCCC2)C=C1")
98
>>> recorded_measurement("CCOC(=O)/C(=C\\c1ccc(F)cc1)C(C)=O")
98
>>> recorded_measurement("CCOP(=O)(OCC)/C(C#N)=C/c1cccc(Oc2ccccc2)c1")
97
>>> recorded_measurement("Nc1ccc(N=Nc2ccc(-c3ccc(O)cc3)cc2)c2ccc(S(=O)(=O)O)cc12")
21
>>> recorded_measurement("CCN(CC)CC(=O)c1ccc2cc(Cl)c3ccccc3c2c1")
98
>>> recorded_measurement("CCC(/C=C/c1ccccc1)=N\\Nc1ccc(Cl)cc1")
94
>>> recorded_measurement("CNC(=S)N/N=C(/C)CCC/C(C)=N/NC(=S)NC")
67
>>> recorded_measurement("COc1ccc(-c2cc(-c3cc(C)cc(Cl)c3O)nc3[nH]c(=S)[nH]c(=S)c23)cc1")
87
>>> recorded_measurement("c1ccc(-c2cc(C3CO3)c3ccccc3n2)cc1 (stereo not drawn)")
99
>>> recorded_measurement("O=C(NCCNCCNC(=O)c1cc(-c2ccccc2)nc2ccccc12)c1cc(-c2ccccc2)nc2ccccc12")
4
>>> recorded_measurement("COc1cc(C(=O)C=O)cc(OC)c1OC")
88
>>> recorded_measurement("O=C1c2cccc3cccc(c23)C(=O)N1O")
99
>>> recorded_measurement("Cc1cccc2c(Cl)c3cccc(C)c3nc12")
5
>>> recorded_measurement("O=C(NC(N1CCN(c2cc3c(cc2F)c(=O)c(C(=O)O)cn3C2CC2)CC1)(C(F)(F)F)C(F)(F)F)c1ccccc1")
34
>>> recorded_measurement("O/N=c1/ccn(O)c2ccccc12")
58
>>> recorded_measurement("CCOc1ccc2nc3ccccc3c(N)c2c1")
98
